study-system: the molecule itself
measurement-protocol: SEC; 100 µl at 2.5, 5 and 10 mg/ml on Superdex 200 10/300 GL, 4°C, 25 mM HEPES pH 7.5, 150 mM NaCl, 2.5 mM DTT; apparent MW from column calibration; the shift of the peak with loaded concentration is read as self-association of the dimers with each other (dimer to higher species)
measurement-type: concentration dependence of apparent MW

Query: Record request: concentration dependence of apparent MW value, item HSPB6 Δ41–50 (natural protein, human, UniProt O14558 1-160, looked up, HSPB6, human, full-length protein with residues 41-50 deleted; source: E. coli NiCo21 (DE3) with pRARE2, purified (subtractive IMAC, anion exchange, SEC); not shown: SUMO, N-terminal, cleaved) MEIPVPVQPSWLRRASAPLPGLSAPGRLFDQRFGEGLLEAAPYYLRAPSVALPVAQVPTDPGHFSVLLDVKHFSPEEIAVKVVGEHVEVHARHEERPDEHGFVAREFHRRYRLPPGVDPAAVTSALSPEGVLSIQAAPASAQAPPPAAAK
Reply: 1.92 kDa/(mg/ml)

Query: Record request: concentration dependence of apparent MW value, item HSPB6 Δ61–70 (natural protein, human, UniProt O14558 1-160, looked up, HSPB6, human, full-length protein with residues 61-70 deleted; By SAXS closer to a tetramer than to a dimer; source: E. coli NiCo21 (DE3) with pRARE2, purified (subtractive IMAC, anion exchange, SEC); not shown: SUMO, N-terminal, cleaved) MEIPVPVQPSWLRRASAPLPGLSAPGRLFDQRFGEGLLEAELAALCPTTLAPYYLRAPSVPGHFSVLLDVKHFSPEEIAVKVVGEHVEVHARHEERPDEHGFVAREFHRRYRLPPGVDPAAVTSALSPEGVLSIQAAPASAQAPPPAAAK
Reply: 3.4 kDa/(mg/ml)
